This section presents compounds with their documented growth at 10 µM values.
System: UACC-257
testSummary: Growth inhibition of human UACC257 cells assessed as growth percentage at 10 uM incubated for 48 hrs by sulforhodamine B assay relative to control
Type: functional
appliedConditions: UACC-257, 48 h, read-out: Activity
Enter your answer as a number in %; do not include the unit.

CC1=C(C(=O)OC(C)C)C(c2ccc3c(c2)OCO3)NC(=S)N1 (racemic)
100
COCCOC(=O)C1=C(C)NC(=S)N(C(C)=O)C1c1ccc2c(c1)OCO2 (racemic)
95.3
COCCOC(=O)C1=C(C)NC(=O)NC1c1ccc2c(c1)OCO2 (racemic)
103
CC(=O)C1=C(C)Nc2nc3ccccc3n2C1c1ccc2c(c1)OCO2 (racemic)
111
CC1=C(C(=O)c2ccccc2)C(c2ccc3c(c2)OCO3)NC(=O)N1 (racemic)
98
CC1=C(C(=O)OCc2ccccc2)C(c2ccc3c(c2)OCO3)NC(=O)N1 (racemic)
103

We next turn to a different compound, shown below.
Exercise: Could you tell me which growth at 10 µM is on file for COCCOC(=O)C1=C(C)NC(=S)NC1c1ccc2c(c1)OCO2 (racemic) ?
Solution: 90.2

###

Test system: UO-31
testSummary: Growth inhibition of human UO31 cells assessed as growth percentage at 10 uM incubated for 48 hrs by sulforhodamine B assay relative to control
Format: functional
appliedConditions: UO-31, 48 h, read-out: Activity
readoutType: growth at 10 µM (%)
Kindly provide the numeric value in % only, without the unit symbol.

CC1=C(C(=O)OCC(C)C)C(c2ccc3c(c2)OCO3)NC(=S)N1 (racemic)
89.4

Now let's try a different one.
Exercise: Bench note: what growth at 10 µM did CC1(C)CC(=O)C2=C(C1)NC(=O)NC2c1ccc2c(c1)OCO2 (racemic) show?
Solution: 84.6

###

System: TK-10
testSummary: Growth inhibition of human TK10 cells assessed as growth percentage at 10 uM incubated for 48 hrs by sulforhodamine B assay relative to control
Format: functional
appliedConditions: TK-10, 48 h, read-out: Activity
Listed here: items and their measured growth at 10 µM.

CC1=C(C(=O)OC(C)C)C(c2ccc3c(c2)OCO3)NC(=O)N1 (racemic)
98.8%
COCCOC(=O)C1=C(C)NC(=O)NC1c1ccc2c(c1)OCO2 (racemic)
100%
CC1=C(C(=O)OCC(C)C)C(c2ccc3c(c2)OCO3)NC(=S)N1 (racemic)
101%
CC1=C(C(=O)OCC(C)C)C(c2ccc3c(c2)OCO3)NC(=O)N1 (racemic)
99.4%
COCCOC(=O)C1=C(C)NC(=S)NC1c1ccc2c(c1)OCO2 (racemic)
104%

Exercise: What does the record list as growth at 10 µM for CC(=O)N1C(=S)NC(C)=C(C(=O)OCC(C)C)C1c1ccc2c(c1)OCO2 (racemic) ?
Solution: 95.4%

Exercise: Thanks! And CC1=C(C(=O)OC(C)C)C(c2ccc3c(c2)OCO3)NC(=S)N1 (racemic) ?
Solution: 98%

Exercise: Same again, this time with CC(=O)C1=C(C)Nc2nc3ccccc3n2C1c1ccc2c(c1)OCO2 (racemic)
Solution: 104%

Exercise: Now this one: CC1=C(C(=O)c2ccccc2)C(c2ccc3c(c2)OCO3)NC(=S)N1 (racemic)
Solution: 66%

Exercise: Now this one: COCCOC(=O)C1=C(C)NC(=S)N(C(C)=O)C1c1ccc2c(c1)OCO2 (racemic)
Solution: 102%

Exercise: Also, CC1=C(C(=O)OCc2ccccc2)C(c2ccc3c(c2)OCO3)NC(=O)N1 (racemic) please.
Solution: 101%

Exercise: Again, but for CC1=C(C(=O)OCc2ccccc2)C(c2ccc3c(c2)OCO3)NC(=S)N1 (racemic)
Solution: 105%

Exercise: # repeat for CC1(C)CC(=O)C2=C(C1)NC(=O)NC2c1ccc2c(c1)OCO2 (racemic)
Solution: 106%

Exercise: For O=C1NC2=C(C(=O)c3ccccc32)C(c2ccc3c(c2)OCO3)N1 (racemic) then?
Solution: 96.1%

Exercise: Now this one: CC(=O)C1=C(C)NC(=O)NC1c1ccc2c(c1)OCO2 (racemic)
Solution: 103%

Exercise: Same question for CC1=C(C(=O)OCc2ccccc2)C(c2ccc3c(c2)OCO3)n2c(nc3ccccc32)N1 (racemic) please.
Solution: 64 to 65.6%

Exercise: Same question for CC(=O)C1=C(C)NC(=S)NC1c1ccc2c(c1)OCO2 (racemic) please.
Solution: 97.6%

Exercise: How about this molecule: CC(=O)N1C(=S)NC(C)=C(C(=O)OCc2ccccc2)C1c1ccc2c(c1)OCO2 (racemic)
Solution: 100%

Exercise: And then CC(=O)N1C(=S)NC(C)=C(C(=O)OC(C)C)C1c1ccc2c(c1)OCO2 (racemic) , what is it?
Solution: 103%

Exercise: Also O=C1C2=C(NC(=S)NC2c2ccc3c(c2)OCO3)c2ccccc21 (racemic) , if possible.
Solution: 102%

Exercise: Proceed to CC1=C(C(=O)c2ccccc2)C(c2ccc3c(c2)OCO3)NC(=O)N1 (racemic)
Solution: 99%

###

# growth at 10 µM listing for each entry below
Test system: NCI/ADR-RES
testSummary: Growth inhibition of human NCI/ADR-RES cells assessed as growth percentage at 10 uM incubated for 48 hrs by sulforhodamine B assay relative to control
Format: functional
appliedConditions: read-out: Activity
# output: bare number, implied unit %

Exercise: Entry under review: CC(=O)C1=C(C)NC(=O)NC1c1ccc2c(c1)OCO2 (racemic) . Reported growth at 10 µM?
Solution: 106

Exercise: Queued: CC1=C(C(=O)OCC(C)C)C(c2ccc3c(c2)OCO3)NC(=S)N1 (racemic)
Solution: 96.7

Exercise: Now consider CC(=O)N1C(=S)NC(C)=C(C(=O)OCC(C)C)C1c1ccc2c(c1)OCO2 (racemic) and answer again.
Solution: 97

Exercise: Same again, this time with CC1=C(C(=O)OCC(C)C)C(c2ccc3c(c2)OCO3)NC(=O)N1 (racemic)
Solution: 106

Exercise: Try CC(=O)C1=C(C)NC(=S)NC1c1ccc2c(c1)OCO2 (racemic) next.
Solution: 112

###

Test system: ACHN
testSummary: Growth inhibition of human ACHN cells assessed as growth percentage at 10 uM incubated for 48 hrs by sulforhodamine B assay relative to control
Type: functional
appliedConditions: read-out: Activity
Items are presented alongside their recorded growth at 10 µM.
Return type: number; implicit unit %.

Exercise: Fill in the recorded growth at 10 µM for this compound, with ACHN as test system: CC(=O)N1C(=S)NC(C)=C(C(=O)OCC(C)C)C1c1ccc2c(c1)OCO2 (racemic)
Solution: 105

Exercise: Same question for COCCOC(=O)C1=C(C)NC(=S)NC1c1ccc2c(c1)OCO2 (racemic) please.
Solution: 106

Exercise: Would you mind doing CC1=C(C(=O)c2ccccc2)C(c2ccc3c(c2)OCO3)NC(=S)N1 (racemic) as well?
Solution: 45.5

###

Below, each of the molecules is paired with its reported growth at 10 µM value.
Test system: SNB-19
testSummary: Growth inhibition of human SNB19 cells assessed as growth percentage at 10 uM incubated for 48 hrs by sulforhodamine B assay relative to control
Format: functional
appliedConditions: SNB-19, 48 h, read-out: Activity
Write down the numeric answer in % and omit the unit.

Use the examples below as a reference point.
CC(=O)N1C(=S)NC(C)=C(C(=O)OCc2ccccc2)C1c1ccc2c(c1)OCO2 (racemic)
87.8
COCCOC(=O)C1=C(C)NC(=S)NC1c1ccc2c(c1)OCO2 (racemic)
100
CC1=C(C(=O)OC(C)C)C(c2ccc3c(c2)OCO3)NC(=S)N1 (racemic)
95.5
COCCOC(=O)C1=C(C)NC(=S)N(C(C)=O)C1c1ccc2c(c1)OCO2 (racemic)
99.3
O=C1C2=C(NC(=S)NC2c2ccc3c(c2)OCO3)c2ccccc21 (racemic)
100

Exercise: Dear colleague, I am looking for the recorded growth at 10 µM of the following molecule: CC1=C(C(=O)OCc2ccccc2)C(c2ccc3c(c2)OCO3)NC(=O)N1 (racemic)
Solution: 96.1

Exercise: Similarly, CC1=C(C(=O)OCC(C)C)C(c2ccc3c(c2)OCO3)NC(=O)N1 (racemic) ?
Solution: 107

Exercise: Next up: COCCOC(=O)C1=C(C)NC(=O)NC1c1ccc2c(c1)OCO2 (racemic)
Solution: 95.6

Exercise: For CC(=O)N1C(=S)NC(C)=C(C(=O)OCC(C)C)C1c1ccc2c(c1)OCO2 (racemic) then?
Solution: 97.9

Exercise: Ok, now CC(=O)N1C(=S)NC(C)=C(C(=O)OC(C)C)C1c1ccc2c(c1)OCO2 (racemic)
Solution: 98.1

Exercise: Also need CC1=C(C(=O)OCc2ccccc2)C(c2ccc3c(c2)OCO3)NC(=S)N1 (racemic) , thanks.
Solution: 103

Exercise: Similarly, CC1=C(C(=O)c2ccccc2)C(c2ccc3c(c2)OCO3)NC(=S)N1 (racemic) ?
Solution: 63.8

Exercise: Another: CC1=C(C(=O)OC(C)C)C(c2ccc3c(c2)OCO3)NC(=O)N1 (racemic)
Solution: 93.6

Exercise: And what about the molecule CC1(C)CC(=O)C2=C(C1)NC(=O)NC2c1ccc2c(c1)OCO2 (racemic) ?
Solution: 108

Exercise: Check CC(=O)C1=C(C)NC(=O)NC1c1ccc2c(c1)OCO2 (racemic) too.
Solution: 95.4

Exercise: Would you kindly repeat that for CC(=O)C1=C(C)Nc2nc3ccccc3n2C1c1ccc2c(c1)OCO2 (racemic) ?
Solution: 99.6

Exercise: Next molecule up: O=C1NC2=C(C(=O)c3ccccc32)C(c2ccc3c(c2)OCO3)N1 (racemic)
Solution: 97.9
